EXPERIMENTAL SYSTEM: human liver GK (Homo sapiens, UniProt P35557)
Construct: GST (glutathione S-transferase) (N)
Sequence (P35557 1-466 isoform P35557-2): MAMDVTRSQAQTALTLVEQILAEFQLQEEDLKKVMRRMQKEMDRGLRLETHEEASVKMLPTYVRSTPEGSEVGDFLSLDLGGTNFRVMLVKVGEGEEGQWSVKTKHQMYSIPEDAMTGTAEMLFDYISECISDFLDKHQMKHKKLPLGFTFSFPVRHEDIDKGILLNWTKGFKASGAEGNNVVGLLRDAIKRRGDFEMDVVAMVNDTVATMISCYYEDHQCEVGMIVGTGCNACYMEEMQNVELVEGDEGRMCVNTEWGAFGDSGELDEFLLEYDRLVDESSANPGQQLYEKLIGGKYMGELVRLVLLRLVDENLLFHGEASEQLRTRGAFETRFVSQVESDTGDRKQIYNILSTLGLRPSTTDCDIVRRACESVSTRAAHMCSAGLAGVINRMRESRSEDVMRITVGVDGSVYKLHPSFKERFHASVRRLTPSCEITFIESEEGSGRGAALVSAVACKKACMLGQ
ASSAY EXPLANATION: GK activation test
RECORDED CONDITIONS: test compound concentration needed to activate 50% of maximum activation ability; 4 mM 14C-labeled glucose, 2 mM ATP, room temperature, 20 minutes
EC50 values for the compounds below.
MEASUREMENT KIND: EC50

{"columns": ["COMPOUND", "MEASUREMENT KIND", "OBS VALUE"],
 "data": [
  ["COc1cc(C(C[C@H]2CCC(=O)N2)c2ccc(C3CC3)c(=O)[nH]2)ccc1Cl (single isomer, unassigned)", "EC50", "500 to 3000 nM"],
  ["O=C1CC[C@H](/C=C(\\c2ccc(Cl)cc2)c2ccc(-c3cn[nH]c3)c(=O)[nH]2)N1", "EC50", "10 to 500 nM"],
  ["Cc1ccc(/C(=C/CC2CCCC2)c2ccc(S(=O)(=O)C3CC3)cc2)[nH]c1=O", "EC50", "10 to 500 nM"],
  ["CCc1ccc(/C(=C/[C@H]2CCC(=O)C2)c2ccc(S(C)(=O)=O)c(Cl)c2)[nH]c1=O", "EC50", "10 to 500 nM"]
]}

---

EC50 values for the compounds below.
EXPERIMENTAL SYSTEM: human liver GK (Homo sapiens)
Construct: GST (glutathione S-transferase) (N)
ASSAY EXPLANATION: GK activation test
RECORDED CONDITIONS: test compound concentration needed to activate 50% of maximum activation ability; 4 mM 14C-labeled glucose, 2 mM ATP, room temperature, 20 minutes

{"columns": ["COMPOUND", "EC50"],
 "data": [
  ["Cc1ccc(/C(=C\\[C@H]2CCC(=O)N2)c2ccc(C3CC3)c(=O)[nH]2)cc1", "0.01 to 0.5 µM"],
  ["Cc1ccc([C@@]2(c3ccc(S(C)(=O)=O)cc3)C[C@@H]2C2CCCC2)[nH]c1=O (relative stereo)", "3 to 10 µM"],
  ["CC(C)(C)c1ccc(/C(=C\\[C@H]2CCN(C(=O)C3CC3)C2)c2ccc(Cl)c(=O)[nH]2)cc1", "0.01 to 0.5 µM"],
  ["CS(=O)(=O)c1cc(/C(=C\\[C@H]2CCC(=O)N2)c2ccc(Cl)c(=O)[nH]2)ccc1C(F)F", "3 to 10 µM"],
  ["Cc1cc(/C(=C\\[C@H]2CCC(=O)N2)c2ccc(C3CC3)c(=O)[nH]2)ccc1C(F)F", "0.01 to 0.5 µM"],
  ["CC(=O)NCC/C=C(\\c1ccc(S(C)(=O)=O)cc1)c1ccc(C2CC2)c(=O)[nH]1", "3 to 10 µM"],
  ["CCOc1ccc(C(C[C@H]2CCC(=O)N2)c2ccc(C3CC3)c(=O)[nH]2)cc1Cl (single isomer, unassigned)", "0.01 to 0.5 µM"],
  ["CC(C)c1ccc(C(C[C@H]2CCC(=O)N2)c2ccc(Cl)c(=O)[nH]2)cc1 (single isomer, unassigned)", "0.5 to 3 µM"],
  ["Cc1ccc(C(C[C@H]2CCC(=O)N2)c2ccc(C3CC3)c(=O)[nH]2)cc1Cl (single isomer, unassigned) [Example 4-215]", "0.01 to 0.5 µM"],
  ["CCOc1ccc(C(C[C@H]2CCC(=O)N2)c2ccc(Cl)c(=O)[nH]2)cc1C (single isomer, unassigned) [Example 4-239]", "0.5 to 3 µM"],
  ["CC(C)Oc1ccc(/C(=C\\[C@H]2CCC(=O)N2)c2ccc(C3CC3)c(=O)[nH]2)cc1F", "0.01 to 0.5 µM"],
  ["O=C1CC[C@H](/C=C(\\c2cccc(OCCCCO)c2)c2ccc(C3CC3)c(=O)[nH]2)N1", "0.5 to 3 µM"],
  ["CC(C)(C)c1ccc(/C(=C\\CCN2CCCC2=O)c2ccc(Cl)c(=O)[nH]2)cc1", "0.5 to 3 µM"],
  ["Cc1ccc(/C(=C/[C@H]2CCC(=O)C2)c2ccc(SCCCO)c(Cl)c2)[nH]c1=O", "0.01 to 0.5 µM"],
  ["CSc1ccc(/C(=C\\[C@H]2CCC(=O)C2)c2ccc(C)c(=O)[nH]2)cc1Cl", "0.01 to 0.5 µM"],
  ["Cc1ccc(/C(=C/C2CCCC2)c2ccc(S(C)(=O)=O)c(Cl)c2)[nH]c1=O", "0.01 to 0.5 µM"],
  ["Cc1cc(C(C[C@H]2CCC(=O)N2)c2ccc(C3CC3)c(=O)[nH]2)ccc1C(F)(F)F (single isomer, unassigned) [Example 4-331]", "3 to 10 µM"],
  ["O=C1CC[C@H](/C=C(\\c2ccc(F)nc2)c2ccc(C3CC3)c(=O)[nH]2)N1", "3 to 10 µM"],
  ["CCc1ccc(/C(=C\\[C@H]2CCCN2C(C)=O)c2ccc(Cl)c(=O)[nH]2)cc1", "0.5 to 3 µM"],
  ["O=C1CC[C@H](/C=C(/c2ccc(C3CC3)c(=O)[nH]2)c2ccc(Cl)cc2C(F)(F)F)N1", "0.5 to 3 µM"],
  ["CC(C)(C)c1ccc(/C(=C\\[C@H]2CCC(=O)N2)c2ccc(Cl)c(=O)[nH]2)c(O)c1", "0.01 to 0.5 µM"],
  ["CCc1ccc(/C(=C/[C@H]2CCC(=O)C2)c2ccc(S(=O)(=O)CCCN(CC)CC)c(Cl)c2)[nH]c1=O", "0.01 to 0.5 µM"],
  ["CCCc1ccc(C(C[C@H]2CCC(=O)N2)c2ccc(C(F)(F)F)cc2)[nH]c1=O (single isomer, unassigned) [Example 4-243]", "3 to 10 µM"],
  ["COc1ccc(/C(=C\\[C@H]2CC[C@@H](O)CC2)c2ccc(C3CC3)c(=O)[nH]2)cc1Cl", "0.5 to 3 µM"],
  ["CSc1ccc(/C(=C\\C2CCCC2)c2ccc(C3CC3)c(=O)[nH]2)cc1", "0.01 to 0.5 µM"],
  ["COc1ccc(/C(=C\\[C@H]2CCC(=O)N2)c2ccc(C3CC3)c(=O)[nH]2)cc1Cl", "0.01 to 0.5 µM"],
  ["O=C1CC[C@H](/C=C(\\c2ccc(Cl)c(OC(F)F)c2)c2ccc(C3CC3)c(=O)[nH]2)N1", "0.5 to 3 µM"],
  ["O=C1CC[C@H](/C=C(\\c2ccc3ccccc3c2)c2ccc(Cl)c(=O)[nH]2)N1", "0.5 to 3 µM"],
  ["CC(C)c1ccc(/C(=C/C2CCCC2)c2ccc(S(C)(=O)=O)cc2)[nH]c1=O", "0.01 to 0.5 µM"]
]}

---

EXPERIMENTAL SYSTEM: human liver GK (Homo sapiens)
Construct: GST (glutathione S-transferase) (N)
ASSAY EXPLANATION: GK activation test
RECORDED CONDITIONS: test compound concentration needed to activate 50% of maximum activation ability; 4 mM 14C-labeled glucose, 2 mM ATP, room temperature, 20 minutes
EC50 values for the compounds below.

{"columns": ["COMPOUND", "EC50"],
 "data": [
  ["CC(C)Oc1ccc(/C(=C\\[C@H]2CCC(=O)N2)c2ccc(C3CC3)c(=O)[nH]2)cc1 [Example 4-276]", "10 to 500 nM"],
  ["O=C1CC[C@H](CC(c2ccc(Cl)c(C(F)(F)F)c2)c2ccc(C3CC3)c(=O)[nH]2)N1 (single isomer, unassigned) [Example 4-222]", "3000 to 10000 nM"],
  ["CCN(CC)CCCS(=O)(=O)c1ccc(C(CC2CCCC2)c2ccc(C)c(=O)[nH]2)cc1Cl (stereo not shown) [Example 2-13]", "500 to 3000 nM"],
  ["CC(C)(C)c1ccc(/C(=C\\CCN2CCCS2(=O)=O)c2ccc(Cl)c(=O)[nH]2)cc1 [Example 6-12]", "500 to 3000 nM"],
  ["O=C1CC[C@H](/C=C(\\c2ccc(S(=O)(=O)Cc3ccccc3)c(Cl)c2)c2ccc(C3CC3)c(=O)[nH]2)N1 [Example 4-293]", "10 to 500 nM"],
  ["COCCCc1ccc(/C(=C\\[C@H]2CCC(=O)N2)c2ccc(Cl)c(=O)[nH]2)cc1 [Example 4-264]", "500 to 3000 nM"],
  ["O=C1CC[C@H](/C=C(\\c2ccc(Cl)cc2)c2ccc(C3CC3)c(=O)[nH]2)N1 [Example 4-98]", "10 to 500 nM"]
]}

---

EC50 values for the compounds below.
EXPERIMENTAL SYSTEM: human liver GK (Homo sapiens)
Construct: GST (glutathione S-transferase) (N)
ASSAY EXPLANATION: GK activation test
RECORDED CONDITIONS: test compound concentration needed to activate 50% of maximum activation ability; 4 mM 14C-labeled glucose, 2 mM ATP, room temperature, 20 minutes
MEASUREMENT KIND: EC50

{"columns": ["COMPOUND", "OBS VALUE"],
 "data": [
  ["O=c1[nH]c(/C(=C/C2CCCC2)c2ccc(SC3CC3)cc2)ccc1-c1ccccc1", "10 to 500 nM"],
  ["Cc1cc(C(C[C@H]2CCC(=O)N2)c2ccc(C3CC3)c(=O)[nH]2)ccc1S(=O)(=O)C1CC1 (single isomer, unassigned) [Example 4-298]", "10 to 500 nM"],
  ["CC(C)(C)c1ccc(/C(=C\\[C@H]2CCC(=O)N2)c2ccc(-c3cn[nH]c3)c(=O)[nH]2)cc1", "10 to 500 nM"],
  ["CC(C)(C)c1ccc(/C(=C\\[C@H]2CCC(=O)N2)c2ccc(N)c(=O)[nH]2)cc1", "500 to 3000 nM"]
]}
